Origin of values: patent US12552800B2

Molecular target: PD brain-derived a-syn aggregates (Homo sapiens)
Construct: from tissue; host or cells: human PD donor brain, sarkosyl-insoluble 100,000 x g pellet
Assay: Micro-radiobinding competition assay against Example-1 [^3H-1] (Table 8)
Assay type: binding
Details: 1 μM non-radiolabelled example compound vs Example-1 [^3H-1] ligand; human PD brain-derived a-syn aggregates
What Competition at 1 μM (%) was measured for each of the following?
The reply should contain only the number, in %.

What the record says about O=C1c2cn(-c3ccc(N4CC[C@@H](F)C4)nc3)nc2CN1c1cncs1 [Example 126] : Competition at 1 μM (%) is 83

What the record says about O=C1c2cn(-c3ccc(N4CC[C@@H](F)C4)nc3)nc2CN1c1cc(O)ccn1 [Example 166] : Competition at 1 μM (%) is 96

What the record says about O=C1c2cn(-c3ccc(N4CC[C@@H](F)C4)nc3)nc2CN1c1cnccn1 [Example 7] : Competition at 1 μM (%) is 101

What the record says about O=C1c2cn(-c3ccc(N4CC[C@@H](F)C4)cc3)nc2CN1c1cccnc1 [Example 85] : Competition at 1 μM (%) is 99

What the record says about Cc1ccnc(N2Cc3nn(-c4ccc(N5CC[C@@H](F)C5)nc4)cc3C2=O)c1 [Example 80] : Competition at 1 μM (%) is 83

What the record says about COc1cncc(N2Cc3nn(-c4ccc(N5CC[C@@H](F)C5)nc4)cc3C2=O)c1 [Example 97] : Competition at 1 μM (%) is 84

What the record says about COc1cccc(N2Cc3nn(-c4ccc(N5CC[C@H](F)C5)nc4)cc3C2=O)c1 [Example 36] : Competition at 1 μM (%) is 91

What the record says about Cn1ccc(N2Cc3nn(-c4ccc(N5CC[C@H](F)C5)nc4)cc3C2=O)n1 [Example 118] : Competition at 1 μM (%) is 94

What the record says about O=C1c2cn(-c3ccc(N4CC[C@H](F)C4)nc3)nc2CN1c1cncs1 [Example 128] : Competition at 1 μM (%) is 85

What the record says about O=C1c2cn(-c3ccc(N4CC[C@@H](F)C4)nc3)nc2CN1c1ncccn1 [Example 15] : Competition at 1 μM (%) is 91

What the record says about N#Cc1cc(N2Cc3nn(-c4ccc(N5CC[C@H](F)C5)nc4)cc3C2=O)ccn1 [Example 111] : Competition at 1 μM (%) is 97

What the record says about Nc1ccc(N2Cc3nn(-c4ccc(N5CCCC5)nc4)cc3C2=O)cc1F [Example 50] : Competition at 1 μM (%) is 103

What the record says about O=C1c2cn(-c3ccc(N4CC(F)C4)nc3)nc2CN1c1cccnc1 [Example 48] : Competition at 1 μM (%) is 77

What the record says about O=C1c2cn(-c3ccc(C4CCCC4)nc3)nc2CN1c1cncc(F)n1 [Example 161] : Competition at 1 μM (%) is 65

What the record says about O=C1c2cn(-c3ccc(N4CC[C@H](F)C4)nc3)nc2CN1c1cncc(F)c1 [Example 92] : Competition at 1 μM (%) is 73

What the record says about CC(C)c1ccc(-n2cc3c(n2)CN(c2cccc(F)n2)C3=O)cn1 [Example 157] : Competition at 1 μM (%) is 43

What the record says about COc1ccc(N2Cc3nn(-c4ccc(N5CC[C@@H](F)C5)nc4)cc3C2=O)nc1 [Example 58] : Competition at 1 μM (%) is 98

What the record says about Cn1cc(-n2cc3c(n2)CN(c2cccc(F)n2)C3=O)cn1 [Example 150] : Competition at 1 μM (%) is 46
